Compiled record: pIC50 values for Hepatocyte growth factor receptor (Homo sapiens, UniProt P08581) across several sources.
pIC50: −log10 of the molar value.

Please review the following examples before continuing.
Task item: Tell me measured pIC50 for COc1cc2nccc(Oc3ccc(NC(=O)C4(C(=O)Nc5ccc(F)c(O)c5)CC4)cc3)c2cc1OC please.
Reply: > 7.30

Task item: Give the reported pIC50 for this compound. CCOC(=O)Nc1cccc(Cn2nc(-c3cc(F)c(OCCCCO)c(F)c3)ccc2=O)c1
Reply: 6.00 to 8.00

New cases:
Task item: Note down pIC50 recorded for O=C(NCCO)Nc1cccc(CN2N=C(c3ccc(Cl)cc3)CSC2=O)c1
Reply: 6.00 to 8.00

Task item: Determine from records and report pIC50 for Cn1cc(-c2ccc3nnc(Cc4ccc5ncsc5c4)n3n2)cn1
Reply: > 7.00

Task item: Tell us which pIC50 value is on record for O=C(c1cnc2c(c1)N(Cc1cc(Cl)ccc1Cl)CCN2)N1CCC(c2noc3cc(F)ccc23)CC1
Reply: < 4.00

Task item: Provide one value: measured pIC50 of CC(C)COc1cc2nccc(Oc3ccc(NC(=O)C4(C(=O)Nc5ccc(F)cc5)CC4)cc3F)c2c2c1OCCO2
Reply: 6.30 to 7.30

Task item: Identify measured pIC50 associated with CCOC(=O)Nc1cccc(Cn2nc(-c3cc(F)c(OCCCN4CCCC4)c(F)c3)ccc2=O)c1
Reply: 6.00 to 8.00

Task item: Assign pIC50 to the following record: CCOC(=O)Nc1cccc(Cn2nc(-c3cccc(CNC(=O)CNC(=O)OC(C)(C)C)c3)ccc2=O)c1
Reply: 6.00 to 8.00

Task item: Could you please provide reported pIC50 for CCOC(=O)Nc1cccc(Cn2nc(-c3cccc(CC(=O)N(C)CCO)c3)ccc2=O)c1 ? Thanks!
Reply: 6.00 to 8.00

Task item: # return recorded pIC50 for input CCOc1ccn(-c2ccc(F)cc2)c(=O)c1C(=O)Nc1ccc(Oc2ccnc3cc(OCCCN4CCCCC4)c4c(c23)OCCO4)c(F)c1
Reply: ≥ 7.30

Task item: Please report pIC50 for the following compound: Cn1cc(-c2cnc3ccc(Cc4nnc5sc(CNCCO)nn45)cc3c2)cn1
Reply: > 7.00

Task item: Provide only the value of recorded pIC50 for CCOC(=O)Nc1cccc(Cn2nc(-c3cccc(CNC(=O)CCO)c3)ccc2=O)c1
Reply: 6.00 to 8.00

Task item: Read off the recorded pIC50 for CC(c1ccc2ncsc2c1)c1nnc2ccc(-c3cccc(C#N)c3)nn12 (stereo not drawn)
Reply: > 7.00

Task item: Consider the compound CC(Oc1cc(-c2ccnn2C)cnc1N)c1cc(F)ccc1-n1cccn1 (stereo not drawn) . State its measured pIC50.
Reply: 5.09

Task item: Tell me measured pIC50 for COc1cc2nccc(Oc3ccc(NC(=O)c4cn(CCO)c(=O)n(-c5ccc(F)cc5)c4=O)cc3F)c2c2c1OCCO2 please.
Reply: ≥ 7.30

Task item: Report measured pIC50; entry is N#Cc1cccc(-c2ccc(=O)n(Cc3cccc(NC(=O)OCCCN4CCOCC4)c3)n2)c1
Reply: 6.00 to 8.00

Task item: Identify measured pIC50 associated with O=C(c1c(F)ccc(NS(=O)(=O)c2ccccc2)c1F)c1c[nH]c2ncc(-c3cccnc3)cc12
Reply: ≥ 5.00

Task item: Consider the compound Cn1cc(-c2cc(Oc3ccc(NC(=O)Nc4cc(C(C)(C)C)nn4C)c(F)c3)ccn2)cn1 and give its recorded pIC50.
Reply: > 6.00

Task item: Using the record for Nc1ncnc2c1c(-c1cccc(OC[C@@H]3CCCO3)c1F)cn2[C@H]1C[C@@H](CN2CC[S+]([O-])CC2)C1 , state its measured pIC50.
Reply: < 5.00

Task item: Please report pIC50 for the following compound: CCOC(=O)Nc1cccc(Cn2nc(-c3cccc(CC(=O)NCCCN)c3)ccc2=O)c1
Reply: 6.00 to 8.00

Task item: Return pIC50 for the following compound: Nc1ncc(-c2cnn(C3CCN(CC(=O)N4CCC4)CC3)c2)cc1-c1nc2ccccc2s1
Reply: 6.00 to 7.00

Task item: Identify measured pIC50 corresponding to CCNCc1nn2c(Cc3ccc4ncc(-c5cnn(C)c5)cc4c3)nnc2s1
Reply: > 7.00

Task item: Please look at this compound and report its pIC50: S=C(NCc1ccncc1)NCc1c[nH]c2ncccc12
Reply: ≥ 5.00

Task item: Please give measured pIC50 of the following entry: CC(=O)N1CCN(CCCOc2cc3nccc(Oc4ccc(NC(=O)C5(C(=O)Nc6ccc(F)cc6)CC5)cc4F)c3c3c2OCCO3)CC1
Reply: ≥ 7.30
